Consider the following molecules and their measured %Inh readings.
- Tested on: CSNK1D
- Condition Context: concentration: 1 μM, replicates: in singlicate; n = 1;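 note: KINOMEscan kinase panel screen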
Give the quantity in %, number only.

The examples below pair each entry with its known result.
Fc1cc(Cl)ccc1Nc1ccnc2cc(-c3ccc(CN4CCSCC4)o3)ccc12: 6
CC(C)NCC(Cc1ccccc1)NC(=O)c1cc(Br)c(-c2ccnc3[nH]ccc23)s1.Cl.Cl (centres unmarked): 26
O=C(O)C(F)(F)F.O=c1[nH]ccc2nc(N[C@@H]3CCNC3)nc(Nc3ccc4c(c3)S(=O)(=O)CC4)c12: 96.7
Cl.N#CCc1ccc(Nc2nccc(Nc3ccc(Oc4ccccc4)cc3)n2)cc1: 0
CCn1cnc2c(NCc3ccccc3)ncnc21: 20

Recorded %Inh of Cc1ccc(O)cc1Nc1ccnc2ccc(C(C)(C)C)cc12 , please. 13

Recorded %Inh of COc1cccc2c(-c3ccncc3)c(-c3ccc(F)cc3)nn12 , please. 90.7

Recorded %Inh of NCCC(NC(=O)c1cc(Br)c(-c2ccnc3[nH]ccc23)s1)c1ccccc1.O=C(O)C(F)(F)F.O=C(O)C(F)(F)F (centres unmarked) , please. 94.1

Recorded %Inh of N#Cc1cnc2cc(-c3cnc(CNCCN4CCOCC4)s3)ccc2c1Nc1ccc(Oc2ccccc2)cc1 , please. 0

Recorded %Inh of Nc1cccc(-c2ccc3c(N)n[nH]c3c2)c1 , please. 8

Recorded %Inh of O=C(Nc1n[nH]c2cc(-c3cccs3)ccc12)C1CC1 , please. 0

Recorded %Inh of Cn1cc(-c2cnc(N)c3c(-c4ccc5c(c4)CCN5C(=O)Cc4ccccc4)csc23)cn1 , please. 0

Recorded %Inh of Cn1cc(-c2ccc3c(c2)CCN3C(=O)Cc2cc(F)cc(C(F)(F)F)c2)c2c(N)ncnc21 , please. 22

Recorded %Inh of Cc1nn2c(=O)cc(N3CCO[C@H](C)C3)nc2n1Cc1cccc(Cl)c1Cl , please. 69

Recorded %Inh of CN(c1ccc(NC(=O)N2CCN(CCCN3CCOCC3)CC2)cc1)c1ccnc(Nc2ccc(CS(C)(=O)=O)cc2)n1.Cl , please. 5

Recorded %Inh of Cc1cccc(Nc2nc(N[C@H]3CCCC[C@H]3N)ncc2C(N)=O)c1.Cl , please. 50

Recorded %Inh of COc1cccc(C2=C(Nc3cccc(O)c3)C(=O)NC2=O)c1 , please. 32

* * *

- Tested on: MYO3A
- Condition Context: concentration: 1 μM, replicates: in singlicate; n = 1
Field: label. Allowed values: rule met (%Inh < 20%) or rule not met (%Inh >= 20%).

O=C(Nc1n[nH]c2nc(-c3ccccc3O)ccc12)C1CC1 [SB-711880]: rule not met
CN(C)c1ncnc2nc[nH]c12 [SKF-31736]: rule met

I'd appreciate it if you could check whether COc1cc(Nc2nccc(N3CCC(NC(=O)Nc4ccc5c(c4)OCO5)C3)n2)cc(OC)c1OC (centres unmarked) [GSK1379766] has %Inh smaller than 20%. rule met

I'd appreciate it if you could check whether Fc1cc(Cl)ccc1Nc1ccnc2cc(-c3ccc(CN4CCSCC4)o3)ccc12 [GW560106] has %Inh smaller than 20%. rule not met

I'd appreciate it if you could check whether O=C(Nc1n[nH]c2nc(-c3ccccc3)ccc12)C1CC1 [SB-708999] has %Inh smaller than 20%. rule not met
